Values from patent US6737383B1

We begin with a simple list: items and their reported Plant response rating, Corn.
- System: corn
- procedure_text: Test B pre/postemergence corn
- Type: in vivo, Zea mays
- condition_set: Postemergence, Rate 62 g/ha; scale 0 to 10, 0 is no effect, 10 is complete control
I'd appreciate a reply containing only the number, no unit.

# annotated cases, reported Plant response rating, Corn shown
compound | Plant response rating, Corn
CC(C)N(C(=O)n1oc(=O)n(CC2CCCCO2)c1=O)c1ccc(Cl)cc1 (stereo not drawn) | 0
Cc1nc(C(C)n2c(=O)on(C(=O)N(c3ccc(F)cc3)C(C)C)c2=O)sc1C (stereo not drawn) | 0
COCCn1c(=O)on(C(=O)N(c2ccc(F)cc2F)C(C)C)c1=O | 0

What the record says about C=C(Cn1c(=O)on(C(=O)N(c2ccccc2)C(C)C)c1=O)c1cccc(Cl)n1 : Plant response rating, Corn is 0

Value of measured Plant response rating, Corn for the entry CC(C)N(C(=O)n1oc(=O)n(CCN(C)C(=O)c2ccccc2)c1=O)c1ccc(F)cc1F : 0

Note to self: Plant response rating, Corn recorded for CC(C)N(C(=O)n1oc(=O)n(C[C@H](C)Cl)c1=O)c1ccccc1 was 0

Per the records, this compound ( COCCn1c(=O)on(C(=O)N(c2ccc(F)cc2)C(C)C)c1=O ) has Plant response rating, Corn equal to 0

Looking up CC(=O)OCC(CCl)n1c(=O)on(C(=O)N(c2ccc(F)cc2F)C(C)C)c1=O (racemic) , I see its Plant response rating, Corn listed as 0

GET /value?item= CC(C)N(C(=O)n1oc(=O)n(CCC2=NOCCC2)c1=O)c1ccc(F)cc1 &field=Plant response rating, Corn returns 0
